Assay System: T1, oncostatin M (hOSM, mature) (Homo sapiens, UniProt P13725 SEQ:26-221)
T1 sequence: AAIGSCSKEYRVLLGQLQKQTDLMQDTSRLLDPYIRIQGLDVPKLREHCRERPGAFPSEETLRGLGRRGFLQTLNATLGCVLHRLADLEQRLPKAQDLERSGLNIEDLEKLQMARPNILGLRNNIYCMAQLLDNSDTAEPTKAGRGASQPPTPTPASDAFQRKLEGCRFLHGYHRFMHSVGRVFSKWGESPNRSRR
Protocol: filter; SCHMK buffer (1 mM MgCl2, 1 mM CaCl2), 37 C
Run Parameters: tags: expressed in E. coli as GST fusion, GST removed by thrombin cleavage
Quantity Name: pKd
Answers are plain numbers, as −log10 of the molar value.

The measured pKd associated with ADR58 (ssRNA, 2'-F C and U (2'-F pyrimidines), 2'-OH purines) RNA: GGGAGGACGAUGCGGAUCGCCCUGAACCGGCCCAGCAGACUGCUGACGGCACGAUCAGACGACUCGCCCGA reads 8.15
